Assay: physchem
Assay type: physicochemical
Details: pH 7.4
VALUE_TYPE: half-life at 20 µM

• COC(=O)C1([Se]c2ccccc2)CC2(C)C(=O)C1(C)C(c1ccccc1)=C2c1ccccc1 (stereo not shown) = ~30 s

====

Assay: CO release kinetics of 38 with or without H2O2 (HPLC)
Format: physicochemical
Conditions: 20% DMSO in PBS with H2O2 (270 µM); 20% of DMSO/PBS, 37° C., H2O2 (270 μM); read-out: beta-elimination half-life (converted)
VALUE_TYPE: half-life at 20 µM

- CCCCCSC1C(C=O)C2(C)C(=O)C1(C)C(c1ccccc1)=C2c1ccccc1 (stereo not shown) [Compound 38]: ~1.5 h
